# System: OCI-AML5 cells expressing shRNAs targeting CDK1, 2, 4, 7, 9, cyclin K
# method: Dose response in OCI-AML5 expressing shRNAs targeting CDK1, 2, 4, 7, 9, cyclin K or control
# Type: cell-based, H. sapiens
# test conditions: OCI-AML5 expressing shRNA CDK2; read-out: IC50 shRNA CDK2
Task for the reader: assign each of the following compounds its reported IC50.

**Q:** Request the reported IC50 associated with Cc1csc(NC(=O)Cc2ccc(N(C)C)cc2)n1
**A:** > 10 µM

**Q:** Request the reported IC50 associated with CN(C)c1ccc(CC(=O)Nc2nc3ccccc3s2)cc1
**A:** > 10 µM

**Q:** Request the reported IC50 associated with CN(C)c1ccc(CC(=O)Nc2nncs2)cc1
**A:** > 10 µM

====

Task for the reader: assign each of the following molecules its reported IC50.
# System: OCI-AML5 cells expressing shRNAs targeting CDK1, 2, 4, 7, 9, cyclin K
# method: Dose response in OCI-AML5 expressing shRNAs targeting CDK1, 2, 4, 7, 9, cyclin K or control
# Type: cell-based, H. sapiens
# test conditions: Homo sapiens, OCI-AML-5, OCI-AML5 expressing shRNA CDK4; read-out: IC50 shRNA CDK4

**Q:** Request the reported IC50 associated with CN(C)c1ccc(CC(=O)Nc2nc3ccccc3[nH]2)cc1
**A:** > 10 µM

**Q:** Request the reported IC50 associated with O=C(Cc1ccc(F)cc1)Nc1ncc(SCc2cccnc2)s1
**A:** 3.4 µM

**Q:** Request the reported IC50 associated with CN(C)c1ccc(CC(=O)Nc2nnc(SCc3cccnc3)s2)cc1
**A:** > 10 µM

**Q:** Request the reported IC50 associated with COC(=O)c1cnc(NC(=O)Cc2ccc(N(C)C)cc2)s1
**A:** > 10 µM

====

# Tested on: OCI-AML5 cells expressing shRNAs targeting CDK1, 2, 4, 7, 9, cyclin K
# method: Dose response in OCI-AML5 expressing shRNAs targeting CDK1, 2, 4, 7, 9, cyclin K or control
# Format: cell-based, H. sapiens
# test conditions: Homo sapiens, OCI-AML-5, OCI-AML5 expressing shRNA CDK4; read-out: IC50 shRNA CDK4
Task for the reader: assign each of the following compounds its reported IC50.

**Q:** Request the reported IC50 associated with O=C(Cc1cnccn1)Nc1ncc(SCc2cccnc2)s1 [UOM-005482]
**A:** > 10 µM

**Q:** Request the reported IC50 associated with CN(C)c1ccc(CC(=O)Nc2nccs2)cc1 [UOM-005597]
**A:** > 10 µM

**Q:** Request the reported IC50 associated with CC(C)(C)OC(=O)N1CCC(CC(=O)Nc2ncc(SCc3cccnc3)s2)C1 (stereo not drawn) [UOM-005226]
**A:** > 10 µM

====

# Test system: cyclin KeGFP
# method: Cyclin KeGFP reporter system (eGFP/mCherry MFI by flow cytometry);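 also: 10 μM compound for 3 h relative to DMSO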
# Format: cell-based, H. sapiens
# test conditions: cyclin K-eGFP reporter
# label = true if % degradation cyclin K-eGFP < 30% else false

**Q:** Bench note: check whether O=C(Cc1ccc(NC(=O)c2ccccc2)cc1)Nc1ncc(SCc2cccnc2)s1 shows % degradation cyclin K-eGFP below 30%
**A:** true

**Q:** Bench note: check whether O=C(Cc1ccc(C(F)(F)F)cc1)Nc1ncc(SCc2cccnc2)s1 shows % degradation cyclin K-eGFP below 30%
**A:** false

**Q:** Bench note: check whether O=C(Cc1ccccc1)Nc1ncc(SCc2cccnc2)s1 shows % degradation cyclin K-eGFP below 30%
**A:** true

**Q:** Bench note: check whether CC(C)(C)c1cnc(CSc2cnc(NC(=O)C3CCNCC3)s2)o1 shows % degradation cyclin K-eGFP below 30%
**A:** true

**Q:** Bench note: check whether O=C(Cc1cccnc1)Nc1ncc(SCc2cccnc2)s1 shows % degradation cyclin K-eGFP below 30%
**A:** true

**Q:** Bench note: check whether [N-]=[N+]=Nc1ccc(CC(=O)Nc2ncc(SCc3cccnc3)s2)cc1 shows % degradation cyclin K-eGFP below 30%
**A:** false

**Q:** Bench note: check whether O=C(Cc1ccc(Cl)cc1)Nc1ncc(SCc2cccnc2)s1 shows % degradation cyclin K-eGFP below 30%
**A:** false

**Q:** Bench note: check whether Cl.Cl.O=C(CC1CCNC1)Nc1ncc(SCc2cccnc2)s1 (stereo not shown) shows % degradation cyclin K-eGFP below 30%
**A:** true

**Q:** Bench note: check whether CN(C)c1ccc(CC(=O)Nc2nc3ccccc3[nH]2)cc1 shows % degradation cyclin K-eGFP below 30%
**A:** true

**Q:** Bench note: check whether CC(=O)N1CCN(c2ccc(CC(=O)Nc3ncc(SCc4cccnc4)s3)cc2)CC1 shows % degradation cyclin K-eGFP below 30%
**A:** true

**Q:** Bench note: check whether C=C(C(=O)Nc1ncc(SCc2cccnc2)s1)c1ccc(CC(C)C)cc1 shows % degradation cyclin K-eGFP below 30%
**A:** false

**Q:** Bench note: check whether O=C(Cc1cc(F)ccc1Br)Nc1ncc(SCc2cccnc2)s1 shows % degradation cyclin K-eGFP below 30%
**A:** true

**Q:** Bench note: check whether O=C(Cc1ccc(-c2ccncc2)cc1)Nc1ncc(SCc2cccnc2)s1 shows % degradation cyclin K-eGFP below 30%
**A:** false

**Q:** Bench note: check whether Cc1nc(CC(=O)Nc2ncc(SCc3cccnc3)s2)c(C)s1 shows % degradation cyclin K-eGFP below 30%
**A:** true

**Q:** Bench note: check whether CSc1ccc(CC(=O)Nc2ncc(SCc3cccnc3)s2)cc1 shows % degradation cyclin K-eGFP below 30%
**A:** false

**Q:** Bench note: check whether O=C(Cc1coc2cc3c(cc12)CCC3)Nc1ncc(SCc2cccnc2)s1 shows % degradation cyclin K-eGFP below 30%
**A:** false

**Q:** Bench note: check whether O=C(Cc1ccc(-c2ccccc2)cc1)Nc1ncc(SCc2cccnc2)s1 shows % degradation cyclin K-eGFP below 30%
**A:** false

**Q:** Bench note: check whether O=C(Nc1ncc(SCc2cccnc2)s1)C1CCNCC1 shows % degradation cyclin K-eGFP below 30%
**A:** true

**Q:** Bench note: check whether COC(=O)c1cnc(NC(=O)Cc2ccc(N(C)C)cc2)s1 shows % degradation cyclin K-eGFP below 30%
**A:** true

====

Task for the reader: assign each of the following molecules its reported IC50.
# Test system: OCI-AML5 cells expressing shRNAs targeting CDK1, 2, 4, 7, 9, cyclin K
# method: Dose response in OCI-AML5 expressing shRNAs targeting CDK1, 2, 4, 7, 9, cyclin K or control
# Assay type: cell-based, H. sapiens
# test conditions: Homo sapiens, OCI-AML-5, OCI-AML5 expressing shRNA CDK2; read-out: IC50 shRNA CDK2

**Q:** Request the reported IC50 associated with CN(C)c1ccc(CC(=O)Nc2nccs2)cc1
**A:** > 10 µM

**Q:** Request the reported IC50 associated with CN(C)c1ccc(CC(=O)Nc2nc3ccccc3[nH]2)cc1
**A:** > 10 µM

**Q:** Request the reported IC50 associated with CN(C)c1ccc(CC(=O)Nc2nnc(SCc3cccnc3)s2)cc1
**A:** > 10 µM

**Q:** Request the reported IC50 associated with C=C(C(=O)Nc1ncc(SCc2cccnc2)s1)c1ccc(CC(C)C)cc1
**A:** > 10 µM

====

# System: OCI-AML5 cells expressing shRNAs targeting CDK1, 2, 4, 7, 9, cyclin K
# method: Dose response in OCI-AML5 expressing shRNAs targeting CDK1, 2, 4, 7, 9, cyclin K or control
# Type: cell-based, H. sapiens
# test conditions: Homo sapiens, OCI-AML-5, OCI-AML5 expressing shRNA CDK2; read-out: IC50 shRNA CDK2
pIC50: −log10 of the molar value.
Give label 1 when the value for pIC50 is at least 6. Give label 0 when it is less.

**Q:** Decide: pIC50 of CC(C)(C)OC(=O)N1CCC(CC(=O)Nc2ncc(SCc3cccnc3)s2)C1 (centres unmarked) >= 6?
**A:** label 0

**Q:** Decide: pIC50 of O=C(Cc1ccccn1)Nc1ncc(SCc2cccnc2)s1 >= 6?
**A:** label 0

**Q:** Decide: pIC50 of O=C(Cc1ccc(Cl)cc1)Nc1ncc(SCc2cccnc2)s1 >= 6?
**A:** label 0

**Q:** Decide: pIC50 of COc1ccc(CC(=O)Nc2ncc(SCc3cccnc3)s2)cc1 >= 6?
**A:** label 0

**Q:** Decide: pIC50 of CN(C)c1ccc(CC(=O)Nc2nc3c(s2)CCC3)cc1 >= 6?
**A:** label 0

**Q:** Decide: pIC50 of O=C(Cc1ccc(F)cc1)Nc1ncc(SCc2cccnc2)s1 >= 6?
**A:** label 0

**Q:** Decide: pIC50 of Cn1cc(CC(=O)Nc2ncc(SCc3cccnc3)s2)c2ccccc21 >= 6?
**A:** label 0

**Q:** Decide: pIC50 of Cc1ccc(CC(=O)Nc2ncc(SCc3cccnc3)s2)cc1 >= 6?
**A:** label 0

**Q:** Decide: pIC50 of O=C(Cc1ccc(NC(=O)c2ccncc2)cc1)Nc1ncc(SCc2cccnc2)s1 >= 6?
**A:** label 1

**Q:** Decide: pIC50 of O=C(Cc1ccc2ccccc2c1)Nc1ncc(SCc2cccnc2)s1 >= 6?
**A:** label 1

**Q:** Decide: pIC50 of COC(=O)c1cnc(NC(=O)Cc2ccc(N(C)C)cc2)s1 >= 6?
**A:** label 0
